- Procedure Details: Inhibition of potassium-stimulated hydrogen potassium ATPase in pig gastric mucosal microsomal fraction assessed as reduction in liberated inorganic phosphate level after 30 mins in presence of KCl by malachite green staining based colorimetric method
- Parameters: species or system Sus scrofa
pIC50: −log10 of the molar value.
Experimental Endpoint: pIC50

Here are 3 compounds together with their reported answers.
Compound: COc1ccc2c(c1)CC[C@@]1(CCCCN1CCc1ccccc1OC)C2=O
pIC50: 7.08
//
Compound: CC(=O)Nc1ccc2c(c1)CC[C@@]1(CCCCN1CCc1ccccc1C)C2=O
pIC50: 7.51
//
Compound: COc1ccc2c(c1)CC[C@@]1(CCCCN1CCc1ccccc1C)C2=O.Cl
pIC50: 7.34

[P] COc1ccc(CCN2CCCC[C@@]23CCc2cc(OC)ccc2C3=O)cc1
[Q] COc1ccc2c(c1)CCC1(CCCCN1CCc1ccc(F)cc1)C2=O (stereo not given)
Task for the reader: decide whether P or Q has the larger pIC50. Indicate your choice by writing its label.
Q

====

- Procedure Details: Inhibition of sodium and potassium-activated sodium potassium ATPase in porcine cerebral cortex assessed as reduction in liberated inorganic phosphate level after 30 mins in presence of sodium and potassium by malachite green staining based colorimetric method
- Parameters: species or system Sus scrofa
Experimental Endpoint: IC50

Compound: O=C1c2cccc3[nH]cc(c23)CC12CCCCN2CCc1ccccc1 (configuration not stated)
IC50: > 10 µM

Please look at the following compound next.
Entry COc1ccc2c(c1)CC[C@@]1(CCCCN1CCc1ccccc1C)C2=O.Cl , IC50 reported as > 10 µM

====

- Procedure Details: Inhibition of potassium-stimulated hydrogen potassium ATPase in pig gastric mucosal microsomal fraction assessed as reduction in liberated inorganic phosphate level after 30 mins in presence of KCl by malachite green staining based colorimetric method
- Set-up: species or system Sus scrofa
Experimental Endpoint: IC50

For orientation, consider the following solved cases.
Molecule: COc1ccc2c(c1)CCC1(CCCCN1CC(=O)c1ccccc1)C2=O (stereo not drawn)
IC50: > 10 µM

Molecule: COc1ccc2c(c1)CCC1(CCCCN1c1ccccc1)C2=O (stereo not drawn)
IC50: > 10 µM

IC50 for COc1ccc2c(c1)CCC1(CCCCN1Cc1ccccc1)C2=O (stereo not drawn) is > 10 µM

Where these numbers come from: ChEMBL document CHEMBL4033704
